Assay: probe aXIP binding to arrayed compounds – biochemical, NeuroSMM set, 635/667 nm fluorescence, primary screen (AID 1119);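 also: probe is the protein aXip251-270 applied at 1 µg/mL to compound-printed slides; binding of probe to printed compounds measured as 667 nm fluorescence plus signal to noise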
Conditions: small-molecule microarray, higher = more signal, called active from +8 up or from −8 down
Provide the reported composite Z-score of each item.
One number for each entry.

Hey, quick one: what's composite Z-score for each of these?
1. C=C(/C(=C/C[C@@H](OC(C)=O)c1ccccc1OCCO)c1cnc2ccccc2c1)C(C)C
2. CN(C)C(=O)[C@@]1(CCC(=O)OC(C)(C)C)COC(c2ccc(OCCCO)cc2)=N1
3. COc1ccc([Si](C)(C)[C@H]2[C@H](CCn3cc(CCO)nn3)O[C@@]3(C(=O)N(Cc4cccc(N5C(=O)c6cccc7cccc5c67)c4)c4ccccc43)[C@@H]2C)cc1

A.
[1.17, 0.142, 0.525]

----------
Assay: probe aNOTCH3 binding on compound microarray – biochemical, small-molecule microarray, 635/667 nm fluorescence, primary screen (AID 1120);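 also: probe is a biotin-tagged antibody raised against NOTCH3 rather than NOTCH3 protein; score merges spot fluorescence near 667 nm with spot signal to noise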
Details: higher = more signal
READOUT TYPE: composite z-score
One number for each entry.

CC1=C2[C@@H](CCc3ccccc3)OB(O)C[C@@H]2[C@@H]2C(=O)C=CC(=O)[C@@H]2C1; -0.0677
COC(=O)[C@@]1(Cc2ccc(F)cc2)[C@H]2c3cc(C(=O)N(C)C)n(Cc4ccc(C)c(F)c4F)c3C[C@H]2CN1C(=O)c1ccccc1; 0.243

Q. Give the measured composite z-score of NC(=O)NCC#Cc1ccc2c(c1)[C@]1(C(=O)N2)[C@H](c2ccc(O)cc2)N2[C@H](c3ccccc3)[C@H](c3ccccc3)OC(=O)[C@H]2[C@@H]1C(N)=O .
A. -0.279

----------
Provide the reported composite z-score of each item.
Assay: probe aEGFR binding to arrayed compounds – biochemical, biotinylated probe, 635/667 nm fluorescence, primary screen (AID 1097);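 also: probe is a biotinylated anti-EGFR antibody binding compounds printed on slides; score combines fluorescence near 667 nm and signal to noise of each spot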
Conditions: small-molecule microarray, higher = more signal
Answers are plain numbers.

Hey, quick one: what's composite z-score for each of these?
1. CCCC[C@@H](O)C1=C(COc2ccccc2)Cn2c(=O)n(-c3ccccc3)c(=O)n2[C@H]1CO
2. COCCOC(=O)N1C(=O)[C@@]2(c3cc(C#CCC(C(=O)OC)C(=O)OC)ccc31)[C@H](c1ccc(OCCO)cc1)N1[C@H](c3ccccc3)[C@H](c3ccccc3)OC(=O)[C@H]1[C@@H]2C(N)=O
3. CCCCC(=C=CC[C@H](O)c1cccc(OCCO)c1)C[C@H](O)COCc1ccccc1
4. CN(C)CCCC[C@@H]1NC(=O)[C@H]2C[C@@H](C(=O)NCCCCCCNC(=O)CS)[C@@H](c3ccc(O)cc3)N2C1=O
5. [N-]=[N+]=NCc1ccccc1C[C@]1(C(=O)NCCN2CCOCC2)N=C(c2ccc(OCCCO)cc2)O[C@H]1c1ccccc1

A.
-0.229
-0.0238
-0.154
-0.173
-0.0382

----------
Provide the reported z-score of each item.
Experiment: optical density change of DRC41 E. coli – strain DRC41, OD650, 24 h, E. coli filamentation project, primary screen (AID 1093);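 also: MC1000 strain lacking acrAB efflux and sulA so SOS filamentation is blocked; test concentration not given here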
Details: E. coli DRC41 growth, higher = more signal, called active from +8 up or from −8 down
Answers are plain numbers.

See these solved cases before continuing.
C=C(CCCC)/C(=C/C[C@H](OC(=O)c1ccncc1)c1ccc(CO)o1)c1cc(C(=O)OC)ccc1OC; 0.171
CCN(CC)c1ccc(N2CC=CC34O[C@@H]5/C=C\CCCOC(=O)C5[C@H]3C(=O)N(CCCCCCO)[C@@H]4C2=O)cc1 (stereo partly drawn); 1.27
O=C(O)[C@@]1(Cc2ccccc2)COC(c2ccc(OCCCO)cc2)=N1; 0.598
C=C(/C(=C/C[C@@H](OC(=O)c1ccncc1)c1cccc(OCCO)c1)c1cc(C(=O)OC)ccc1OC)C(C)C; 1.03

Hey, quick one: what's z-score for each of these?
1. COc1cc2c(cc1OC)CN(C(=O)[C@@H]1[C@H]3C(=O)O[C@H](c4ccccc4)[C@H](c4ccccc4)N3[C@H](c3ccc(O)cc3)[C@@]13C(=O)Nc1ccc(C#CCNC(N)=O)cc13)CC2
2. CCOC(=O)C[C@H]1[C@H](OC(=O)c2cc3ccccc3oc2=O)[C@@H](NC(=O)c2ccc3ccccc3n2)c2cc(OCCCO)ccc2N1C(=O)c1ccc2ccccc2n1
3. CC(C)(C)OC(=O)CC[C@@]1(C(=O)N2CCCCC2)N=C(c2ccc(OCCCO)cc2)O[C@@H]1c1ccccc1CN=[N+]=[N-]

A.
[0.364, 1.5, 0.308]

Q. Give the measured z-score of C=CC[C@]1(C(=O)N(C)C)N=C(c2ccc(OCCCO)cc2)O[C@H]1c1ccccc1 .
A. 0.896
